Property: % inhibition at 10 nM; scope: individual binders
Assay System: human plasma kallikrein (human, UniProt P03952 20-390; P03952 391-638)
Sequence (P03952 20-390, chain 1 of 2): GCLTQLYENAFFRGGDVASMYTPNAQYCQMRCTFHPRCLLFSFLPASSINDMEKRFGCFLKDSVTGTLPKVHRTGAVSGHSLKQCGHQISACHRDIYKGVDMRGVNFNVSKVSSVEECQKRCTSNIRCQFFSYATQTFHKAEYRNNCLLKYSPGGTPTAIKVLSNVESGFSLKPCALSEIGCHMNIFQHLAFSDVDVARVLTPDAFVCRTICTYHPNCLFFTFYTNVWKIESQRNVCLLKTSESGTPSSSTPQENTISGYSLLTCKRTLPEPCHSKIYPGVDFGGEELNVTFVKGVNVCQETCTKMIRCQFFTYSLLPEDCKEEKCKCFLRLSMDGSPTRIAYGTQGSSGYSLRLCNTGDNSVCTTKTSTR
Sequence (P03952 391-638, chain 2 of 2): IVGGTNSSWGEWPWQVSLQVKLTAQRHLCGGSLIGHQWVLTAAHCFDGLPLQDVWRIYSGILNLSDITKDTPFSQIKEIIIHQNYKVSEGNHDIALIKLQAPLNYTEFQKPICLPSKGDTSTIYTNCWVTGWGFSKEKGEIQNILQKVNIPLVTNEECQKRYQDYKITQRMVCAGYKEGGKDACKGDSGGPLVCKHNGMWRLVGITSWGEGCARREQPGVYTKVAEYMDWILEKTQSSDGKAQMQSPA
Test Name: cell-based or functional assay
Measure Name: % inhibition at 10 nM (%)

binder="M208-H02 (Fab, V domains shown, Tested as Fab; printed HC runs into CH1) VH: EVQLLESGGGLVQPGGSLRLSCAASGFTFSHYLMTWVRQAPGKGLEWVSYISPSGGHTIYADSVKGRFTISRDNSKNTLYLQMNSLRAEDTAVYYCARVARGIASRSRTRYCDYWGQGTLVTVSS VL: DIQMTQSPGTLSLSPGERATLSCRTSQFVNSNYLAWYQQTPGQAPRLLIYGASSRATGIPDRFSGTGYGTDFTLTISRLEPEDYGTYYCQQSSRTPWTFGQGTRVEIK" measure_name="% inhibition at 10 nM" observed_measurement=94.4
binder="M203-A01 (Fab, V domains shown) VH: EVQLLESGGGLVQPGGSLRLSCAASGFTFSNYLMAWVRQAPGKGLEWVSWIVPSGGYTEYADSVKGRFTISRDNSKNTLYLQMNSLRAEDTAVYYCARVARGIAARSRTSYFDYWGQGTLVTVSS VL: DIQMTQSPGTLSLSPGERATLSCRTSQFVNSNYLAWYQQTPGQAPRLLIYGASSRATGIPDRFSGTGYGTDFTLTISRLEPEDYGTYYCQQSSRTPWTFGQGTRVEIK" measure_name="% inhibition at 10 nM" observed_measurement=51.4
binder="M208-C06 (Fab, V domains shown, Tested as Fab; printed HC runs into CH1) VH: EVQLLESGGGLVQPGGSLRLSCAASGFTFSHYLMTWVRQAPGKGLEWVSYISPSGGHTIYADSVKGRFTISRDNSKNTLYLQMNSLRAEDTAVYYCARVARGIAARSRTSFIDYWGQGTLVTVSS VL: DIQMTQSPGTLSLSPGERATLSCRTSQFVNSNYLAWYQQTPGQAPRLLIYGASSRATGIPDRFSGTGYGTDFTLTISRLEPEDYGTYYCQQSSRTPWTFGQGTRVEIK" measure_name="% inhibition at 10 nM" observed_measurement=91.7
